Consider the following compounds; for each one, report its Plant response rating, Pigweed.
Tested on: pigweed
Test: Test A postemergence
Format: in vivo, Amaranthus retroflexus
Conditions: 500 g ai/ha, 0 to 100 scale, 0 no effect, 100 complete control
Returns: the value as a bare number; no unit string appended.

// Plant response rating, Pigweed lookup, compound = FC(F)(F)c1ccn(-c2ccccc2Oc2ncc(Br)cn2)n1 [Compound 1] , result: 100

// Plant response rating, Pigweed lookup, compound = CC(C)(C)c1ccn(-c2ccccc2Oc2ncc(Cl)cn2)n1 [Compound 29] , result: 50

// Plant response rating, Pigweed lookup, compound = Brc1cnc(Oc2ccccc2-n2cc(Br)cn2)nc1 [Compound 8] , result: 100

// Plant response rating, Pigweed lookup, compound = Clc1cnc(Oc2ccccc2-n2cnc(Br)n2)nc1 [Compound 46] , result: 80

// Plant response rating, Pigweed lookup, compound = Clc1cnc(Oc2ccccc2-n2cc(Cl)cn2)nc1 [Compound 3] , result: 100

* * *

System: velvetleaf
Assay: Test C postemergence
Format: in vivo, Abutilon theophrasti
Conditions: 31 g ai/ha, postemergence; visual rating, scale 0 to 100 (0 no effect, 100 complete control), 13 to 15 days
ENDPOINT: Velvetleaf plant response rating

Summary: FCc1cn(-c2c(F)cccc2Oc2ncc(Cl)cn2)nn1 [Compound 154] , velvetleaf, Velvetleaf plant response rating = 45

Summary: N#Cc1cccc(Oc2ncc(Cl)cn2)c1-n1cc(I)cn1 [Compound 204] , velvetleaf, Velvetleaf plant response rating = 35

Summary: FC(F)(F)c1cn(-c2ccccc2Oc2ncc(Cl)cn2)nn1 [Compound 166] , velvetleaf, Velvetleaf plant response rating = 55

Summary: Fc1cccc(Oc2ncc(Cl)cn2)c1-n1cc(C2CC2)nn1 [Compound 155] , velvetleaf, Velvetleaf plant response rating = 75

Summary: CCCOc1cnn(-c2c(C#N)cccc2Oc2ncc(Cl)cn2)c1 [Compound 150] , velvetleaf, Velvetleaf plant response rating = 25

Summary: N#Cc1cccc(Oc2ncc(Cl)cn2)c1-n1cc(-n2ccc(C(F)(F)F)n2)cn1 [Compound 284] , velvetleaf, Velvetleaf plant response rating = 15

* * *

Consider the following compounds; for each one, report its pest or weed control at 62 g/ha.
Test system: windgrass
Assay: Test D preemergence
Format: in vivo, Apera spica-venti
Conditions: Apera spica-venti, pre-emergence, 62 g ai/ha, scale 0-100, read-out: Plant response rating, Windgrass
Number in %, nothing else.

// pest or weed control at 62 g/ha lookup, compound = Fc1cccc(Oc2ncc(Cl)cn2)c1-n1cc(Br)cn1 , result: 70

// pest or weed control at 62 g/ha lookup, compound = Clc1cnc(Oc2ccccc2-n2cc(Br)cn2)nc1 , result: 0

// pest or weed control at 62 g/ha lookup, compound = N#Cc1cccc(Oc2ncc(Cl)cn2)c1-n1cc(C(F)(F)F)cn1 , result: 100

// pest or weed control at 62 g/ha lookup, compound = FC(F)(F)COc1cnn(-c2ccccc2Oc2ncc(Cl)cn2)c1 , result: 0

* * *

Consider the following compounds; for each one, report its Oilseed Rape plant response rating.
Test system: oilseed rape
Assay: Test C preemergence
Format: in vivo, Brassica napus
Settings: 125 g ai/ha, preemergence; scale 0 (no effect) to 100 (complete control)
Text: […]
Returns: the value as a bare number; no unit string appended.

Summary: FCc1cccc(Oc2ncc(Cl)cn2)c1-n1cc(Br)cn1 , oilseed rape, Oilseed Rape plant response rating = 100

Summary: FCc1cccc(Oc2ncc(F)cn2)c1-n1cc(C(F)(F)F)cn1 , oilseed rape, Oilseed Rape plant response rating = 100

Summary: CCOc1cnn(-c2c(C#N)cccc2Oc2ncc(F)cn2)c1 , oilseed rape, Oilseed Rape plant response rating = 98

Summary: Fc1cccc(Oc2ncc(Cl)cn2)c1-n1cc(I)cn1 , oilseed rape, Oilseed Rape plant response rating = 100

Summary: Clc1cnc(Oc2cccc(Br)c2-n2cc(Br)nn2)nc1 , oilseed rape, Oilseed Rape plant response rating = 100

Summary: CCOc1cnn(-c2c(C#N)cccc2Oc2ncc(Cl)cn2)c1 , oilseed rape, Oilseed Rape plant response rating = 95

Summary: CCOc1cnn(-c2ccccc2Oc2ncc(Cl)cn2)c1 , oilseed rape, Oilseed Rape plant response rating = 90

Summary: N#Cc1cccc(Oc2ncc(Br)cn2)c1-n1cc(I)cn1 , oilseed rape, Oilseed Rape plant response rating = 100

Summary: Fc1cccc(Oc2ncc(Cl)cn2)c1-n1cc(OCC(F)(F)F)cn1 , oilseed rape, Oilseed Rape plant response rating = 100

Summary: N#Cc1cnn(-c2c(C#N)cccc2Oc2ncc(F)cn2)c1 , oilseed rape, Oilseed Rape plant response rating = 100

Summary: N#Cc1cnn(-c2c(Oc3ncc(Cl)cn3)cccc2C(F)F)c1 , oilseed rape, Oilseed Rape plant response rating = 100

Summary: FCc1cccc(Oc2ncc(Cl)cn2)c1-n1cc(Cl)cn1 , oilseed rape, Oilseed Rape plant response rating = 100

* * *

System: barnyardgrass
Assay: Test A postemergence
Type: in vivo, Echinochloa crus-galli
Conditions: 125 g ai/ha, 0 to 100 scale where 0 is no effect and 100 is complete control
Cut-off 10 on Barnyardgrass plant response rating, inclusive. At or above means Y; below means N.

Is the recorded value of Barnyardgrass plant response rating equal to or greater than 10 for this compound? CON=Cc1cccc(Oc2ncc(Cl)cn2)c1-n1cc(Br)cn1 Y

Is the recorded value of Barnyardgrass plant response rating equal to or greater than 10 for this compound? FC(F)c1cccc(Oc2ncc(Br)cn2)c1-n1cc(I)cn1 Y

Is the recorded value of Barnyardgrass plant response rating equal to or greater than 10 for this compound? FCc1cccc(Oc2ncc(Br)cn2)c1-n1cc(Br)cn1 Y

Is the recorded value of Barnyardgrass plant response rating equal to or greater than 10 for this compound? N#Cc1cccc(Oc2ncc(Cl)cn2)c1-n1cc(I)cn1 Y

Is the recorded value of Barnyardgrass plant response rating equal to or greater than 10 for this compound? COc1cnn(-c2c(C#N)cccc2Oc2ncc(Cl)cn2)c1 N

Is the recorded value of Barnyardgrass plant response rating equal to or greater than 10 for this compound? N#Cc1cnc(Oc2cccc(C=O)c2-n2cc(Br)cn2)nc1 N

Is the recorded value of Barnyardgrass plant response rating equal to or greater than 10 for this compound? O=Cc1cccc(Oc2ncc(F)cn2)c1-n1cc(C(F)(F)F)cn1 N

Is the recorded value of Barnyardgrass plant response rating equal to or greater than 10 for this compound? N#Cc1cnn(-c2c(CF)cccc2Oc2ncc(F)cn2)c1 Y

Is the recorded value of Barnyardgrass plant response rating equal to or greater than 10 for this compound? FC(F)(F)c1cnn(-c2c(Cl)cccc2Oc2ncc(Cl)cn2)c1 Y

Is the recorded value of Barnyardgrass plant response rating equal to or greater than 10 for this compound? COc1cnn(-c2c(F)cccc2Oc2ncc(Cl)cn2)c1 Y

Is the recorded value of Barnyardgrass plant response rating equal to or greater than 10 for this compound? N#Cc1ccc(Oc2ncc(Cl)cn2)c(-n2cc(Br)cn2)c1 N

Is the recorded value of Barnyardgrass plant response rating equal to or greater than 10 for this compound? N#Cc1cc(F)cc(Oc2ncc(Br)cn2)c1-n1cc(Br)cn1 N

Is the recorded value of Barnyardgrass plant response rating equal to or greater than 10 for this compound? COc1ccc(Br)c(-n2cc(Br)cn2)c1Oc1ncc(Cl)cn1 N

Is the recorded value of Barnyardgrass plant response rating equal to or greater than 10 for this compound? Clc1cnc(Oc2cccc(Cl)c2-n2cc(Br)cn2)nc1 Y

Is the recorded value of Barnyardgrass plant response rating equal to or greater than 10 for this compound? O=Cc1cccc(Oc2ncc(Br)cn2)c1-n1cc(C(F)(F)F)cn1 N

Is the recorded value of Barnyardgrass plant response rating equal to or greater than 10 for this compound? CCOc1cnn(-c2ccccc2Oc2ncc(Cl)cn2)c1 Y

Is the recorded value of Barnyardgrass plant response rating equal to or greater than 10 for this compound? Clc1cnc(Oc2cccc(-c3ccccc3)c2-n2cc(Br)cn2)nc1 N

* * *

Consider the following compounds; for each one, report its Plant response rating, Barnyardgrass.
System: barnyardgrass
Assay: Test A postemergence
Format: in vivo, Echinochloa crus-galli
Settings: 500 g ai/ha, 0 to 100 scale where 0 is no effect and 100 is complete control
Returns: the value as a bare number; no unit string appended.

// Plant response rating, Barnyardgrass lookup, compound = Clc1cnc(Oc2cccc(-c3cccnc3)c2-n2cc(Br)cn2)nc1 , result: 0

// Plant response rating, Barnyardgrass lookup, compound = FC(F)(F)c1cnn(-c2c(Cl)cccc2Oc2ncc(Cl)cn2)c1 , result: 100

// Plant response rating, Barnyardgrass lookup, compound = Fc1cccc(Oc2ncc(Cl)cn2)c1-n1cccn1 , result: 40

// Plant response rating, Barnyardgrass lookup, compound = N#Cc1cnn(-c2c(C=O)cccc2Oc2ncc(Cl)cn2)c1 , result: 0

// Plant response rating, Barnyardgrass lookup, compound = N#Cc1cccc(Oc2ncc(Cl)cn2)c1-n1cc(Br)cn1 , result: 0

// Plant response rating, Barnyardgrass lookup, compound = COc1ccc(Br)c(-n2cc(Br)cn2)c1Oc1ncc(Cl)cn1 , result: 10

// Plant response rating, Barnyardgrass lookup, compound = Fc1cnc(Oc2cccc(C(F)F)c2-n2cc(Br)cn2)nc1 , result: 90
